# test_details: yeast display, Sf9 membrane polyspecificity reagent, FACS + sequencing; frameworks hold sequencing errors
property_name: polyreactivity (PSR sort gate)

residues=QVQLVESGGGLVQAGGSLRLSCAASGRTFRKNTMGWYRQAPGKEREFVATISSRGGSTFYADSVKGRFTISRDNAKNTVYLQMNSLKPEDTAVYYCNAVYRYSLKPIYDYWGQGTQVTVSS readout_value="high polyreactivity"
residues=QVQLVESGGGLVQAGGSLRLSCAASGSISGRYAMGWSRQAPGKEMELVAAISWIGGSTYYADSVKGRFTISRDNAKNTVYLQMISLKPEDTAVYYCYVTIDTRTDPLLVVLYGYDYWGQGTLVTVSS readout_value="low polyreactivity"
residues=QVQLVESGGGLVQAGGSLRLSCAASGSTFITNSMGWYRQAPGKERELVAAITYSTGGTYYADSVKGRFTISRDNAKNTVYLQMNSLKPEDTAVYYCAALLYFFLYDYWGQGTQVSVSS readout_value="low polyreactivity"
residues=QVQLVESGGGLVQAGGSLRLSCAASGITFYRNARGWYRQAPGKERELVAAITSGTRTYYADSVKGRFTISRDNAKNTVYLQMNSLKPEDTAVYYCAKRGPYYNDDEYYCGQGTQVTVSS readout_value="low polyreactivity"
residues=QVQHVESRGGLVQAGGSLRLSCAASGLILSGYTMGWYRPAPGKERELVAAISRSGGSTYYADSVKGRFTISRDNAKNTVYLQMNSLKPEDTAVYYCAKVPIYRYGVWAMNYWGQGTQVTVSS readout_value="high polyreactivity"

Lab book: polyreactivity (PSR sort gate) of QVQLVESGGGLVQAGGSLRLSCAASGSTFTHYAMGWYRQAPGKERELVAAISSRGGSTYADSVKGRFTISRDNAKNTVYLQMNSLKPEDTAVYYCAARYRLYYYFRFDWGQGTQVTVSS noted as high polyreactivity

Kindly note the recorded polyreactivity (PSR sort gate) for QVQLVESGGGLVQAGGSLRLSCAASGRIFYGNAMGWYRQAPGKERQLVAAITDGGSTNYADSVKGRFTISRDNAKNTVYLQMNSLKPEDTAVYYCAKDYRGSYYKYDYWGQGTQVTVSS , which is low polyreactivity

# polyreactivity (PSR sort gate) (sequence: QFQLVESGGGLVQAGGSLRLSCAASGGTFPYNAMGWYRQAPGKERELVAAISSSGTSTYYADSVKGRFTISRDNAKNTVYLQMNSLKPEDTAVYYCNDYFKRYDYWGQGTQVTVSS ) is high polyreactivity

GET /value?item= QVQLVESGGGLVQAGGSLRLSCAATGLIFAYNTMGWYRQAPGKERELVAGITSSGSTYYADSVKGRFTISRDNAKNTVYVQMNSLKPEDTAVYYCAAEWDDGRSWYWYYLVGFEYWGQGTQVTVSS &field=polyreactivity (PSR sort gate) returns high polyreactivity

The recorded polyreactivity (PSR sort gate) for QVQLVESGGGLVQAGGSLRLSCAASGFILKPNAMGWYRQAPGKERELVAAISWSSGSTYYADSVKGRFTISRDNAKNTVYLQMNSLKPEDTAVYYCAKDLTQIYYGDDYWGQGTQVTVSS is low polyreactivity

So for QVQLVESGGGLVQAGGSLGLSCAATGSTIPYNAMGWYRQAPGKERELVAAINSAGGTNYADSVKGRFTISRDNAKNTVYLQMNSRKPEDTAVYYCAADGSGYYDWYYYWGQGTQVTVSS , the logged polyreactivity (PSR sort gate) turned out to be low polyreactivity
